Assay: CEETOX_H295R_CORTISOL: CeeTox H295R High-throughput Steroidogenesis Assay for Cortisol (AID 2283438);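 further: cortisol secreted into medium quantified by LC-MS/MS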
Settings: actives raise or lower the signal
The source made the active and inactive calls. How the source made its calls: active means hit-call score of the fitted dose curve at least 0.9, where 1 is the maximum; inactive means score below 0.9.
Respond using exactly one of the listed classes: active, inactive

COc1ccc([N+](=O)[O-])cc1N: active
CCCCCCCCC(=O)O: inactive
CCCOC(=O)c1ccc(O)cc1: active
CC1=C(/C=C/C(C)=C/C=C/C(C)=C/C(=O)O)C(C)(C)CCC1: inactive
CCc1nn(C2CCCCC2)c2cc(C3(C#N)CCC(C(=O)O)CC3)ccc12 (configuration not stated): inactive
CCCCCCCCCCCCCCCS(=O)(=O)Oc1ccccc1: inactive

Then there is this compound:
Name the outcome recorded for Nc1cccc2c(N)cccc12 in the assay. active

----------
Read-out: E-selectin (Homo sapiens)
Experiment: BSK_LPS_Eselectin: BioMAP Diversity Plus: LPS Assay for Eselectin Biomarker Activity (AID 2283077)
Details: primary human HUVEC with PBMC; actives raise or lower the signal
Experimental: BSK_LPS is a cell-based, multiplexed-readout assay that uses umbilical vein endothelium and peripheral blood mononuclear cells, a human vascular primary cell co-culture, with measurements taken at 24 hours after chemical dosing in a 96-well plate.BSK_LPS_Eselectin is an assay component measured in the BSK_LPS assay. It measures E-selectin antibody related to regulation of gene expression using ELISA technology.Data from the assay component BSK_LPS_Eselectin was analyzed into 1 assay endpoint. […]
The source made the active and inactive calls. The calls were made as follows: active = hit-call score of the fitted dose curve at least 0.9, where 1 is the maximum; inactive = score below 0.9.
measure name: AC50

CCCCCCCCCCCCCC[N+](C)(C)C: 10 µM (active)
CCCOC(=O)c1ccc(O)cc1: inactive
COCC(C)O (stereo not given): inactive
CCCCC(CC)COC(=O)CCCCC(=O)OCc1ccccc1 (stereo not given): inactive
CC#C[C@]1(O)CC[C@H]2[C@@H]3CCC4=CC(=O)CCC4=C3[C@@H](c3ccc(N(C)C)cc3)C[C@@]21C: 30.5 µM (active)
O=C(O)Cc1cc(I)c(Oc2cc(I)c(O)c(I)c2)c(I)c1: inactive

The compound listed as CC1=C(/C=C/C(C)=C/C=C/C(C)=C/C(=O)O)C(C)(C)CCC1 shows AC50 equal to 6.18 µM (active)

The compound listed as CC(C)(C)c1cc(C(C)(C)C)c(O)c(C(C)(C)C)c1 shows AC50 equal to inactive

The compound listed as NCC(F)(F)C(F)(F)C(F)(F)C(F)(F)C(F)(F)C(F)(F)C(F)(F)F shows AC50 equal to inactive

The compound listed as OC1CCCCC1 shows AC50 equal to inactive

The compound listed as CCCOc1sc(C(=O)N2CCC(c3cc(CN)ccc3F)CC2)c(C)c1Br shows AC50 equal to 11.1 µM (active)

----------
Test: BSK_hDFCGF_SRB: Viability Assessment in the BioMAP Diversity Plus: hDFCGF Assay (AID 2283061);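 further: cells exposed to compound for 24 h before the read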
Conditions: primary human foreskin fibroblasts
The source made the active and inactive calls. How the source made its calls: active means hit-call score of the fitted dose curve at least 0.9, where 1 is the maximum; inactive means score below 0.9.
Respond using exactly one of the listed classes: true (active), false (inactive)

CC[C@H](c1ccc(O)cc1)[C@@H](CC)c1ccc(O)cc1: true
c1ccc2cc3c(ccc4ccccc43)cc2c1: false

Name the outcome recorded for CCCCC(CC)COC(=O)CCCCC(=O)OCC(CC)CCCC (stereo not given) in the assay. false

Name the outcome recorded for CC(C)(C)CC(C)(C)c1ccc(O)c(-n2nc3ccccc3n2)c1 in the assay. true

Name the outcome recorded for CN1CCN(c2ccccc2/C=C2\SCCN(c3ccc(Cl)c(Cl)c3)C2=O)CC1 in the assay. true

Name the outcome recorded for CCC(C)(C)C1CCC(O)CC1 (stereo not given) in the assay. false

Name the outcome recorded for CCN(CC)CCNc1ccc(CNC=O)c2sc3ccc(OC)cc3c(=O)c12 in the assay. true

Name the outcome recorded for CCCOC(=O)c1ccc(O)cc1 in the assay. false

Name the outcome recorded for CC(=O)NC1(c2cccc(F)c2)CCN(CC[C@@]2(c3ccc(Cl)c(Cl)c3)CN(c3ccccc3)C(=O)CO2)CC1 in the assay. true

Name the outcome recorded for CC1=C(/C=C/C(C)=C/C=C/C(C)=C/C(=O)O)C(C)(C)CCC1 in the assay. true

Name the outcome recorded for C=C(C)C(=O)OCCC(F)(F)C(F)(F)C(F)(F)C(F)(F)C(F)(F)C(F)(F)F in the assay. false

Name the outcome recorded for NC(=O)N1C(=O)C(C(=O)c2cc(Cl)cs2)c2cc(F)c(Cl)cc21 (stereo not given) in the assay. true

Name the outcome recorded for CC[C@H](C)[C@@H](C(=O)O)n1sc2ccccc2c1=O in the assay. false

Name the outcome recorded for O=C(OCCOCCOC(=O)c1ccccc1)c1ccccc1 in the assay. false

Name the outcome recorded for c1ccc2c(c1)Cc1ccccc1-2 in the assay. false

Name the outcome recorded for CCC(=C(c1ccc(O)cc1)c1ccc(OCCN(C)C)cc1)c1ccccc1 in the assay. true

----------
Read-out: Apolipoprotein A-V (APOA5) gene, APOA5 (gene 116519)
Assay: LTEA_HepaRG_APOA5: Life Technologies and Expression Analysis (LTEA) Assay for Apolipoprotein A-V (APOA5) gene using HepaRG (AID 2283474)
Conditions: mRNA level, 48 h; actives raise or lower the signal
The source made the active and inactive calls. The calls were made as follows: active = hit-call score of the fitted dose curve at least 0.9, where 1 is the maximum; inactive = score below 0.9.
Respond using exactly one of the listed classes: active, inactive

# count of solved cases: 6
CCCCC(CC)COC(=O)CCCCC(=O)OCc1ccccc1 (stereo not given): inactive
c1ccc2c(c1)ccc1ccccc12: inactive
OC1CCCCC1: inactive
COc1ccc([N+](=O)[O-])cc1N: inactive
CCCOc1sc(C(=O)N2CCC(c3cc(CN)ccc3F)CC2)c(C)c1Br: inactive
O=c1c(-c2ccc(O)cc2)coc2cc(O)ccc12: inactive

Then there is this molecule:
Name the outcome recorded for CC(O)CO (stereo not given) in the assay. inactive

----------
Test system: SRD5A2 (gene 6716)
Experiment: CCTE_Deisenroth_5AR_NBTE_ratio: CCTE's 5alpha-reductase NanoBRET Target Engagement Assay - Ratio, Deisenroth Lab (AID 2284322)
Conditions: actives raise or lower the signal
Active and inactive are the calls of the source. Rule for the calls: active = hit-call score of the fitted dose curve at least 0.9, where 1 is the maximum; inactive = score below 0.9.
Respond using exactly one of the listed classes: yes (1) for active, no (0) for inactive

O=[N+]([O-])c1ccc(O)cc1: yes (1)
CCOC(=O)CC(O)(CC(=O)OCC)C(=O)OCC: no (0)
O=C1OC2(c3ccccc31)c1cc(Br)c(O)c(Br)c1Oc1c2cc(Br)c(O)c1Br: yes (1)
COCC(C)O (stereo unspecified): no (0)

Name the outcome recorded for COCC(C)OCC(C)O (stereo unspecified) in the assay. no (0)

Name the outcome recorded for CCCCCCCCOC(=O)CCCCCCCCC(=O)OCCCCCCCC in the assay. no (0)

----------
Read-out: ABC Transporter (ABCB1), ABCB1 (gene 5243)
Experiment: LTEA_HepaRG_ABCB1: Life Technologies and Expression Analysis (LTEA) Assay for ABC Transporter (ABCB1) using HepaRG (AID 2283460)
Settings: mRNA level, 48 h; actives raise or lower the signal
Active and inactive are the calls of the source. Rule for the calls: active = hit-call score of the fitted dose curve at least 0.9, where 1 is the maximum; inactive = score below 0.9.
Respond using exactly one of the listed classes: active, inactive

# count of solved cases: 5
c1ccc2cc3c(ccc4ccccc43)cc2c1: active
CCC(C)(C)C1CCC(O)CC1 (centres undefined): inactive
CCCCCCC(=O)O: inactive
CCCCC(CC)COC(=O)CCCCC(=O)OCc1ccccc1 (centres undefined): inactive
O=[N+]([O-])c1ccc(O)cc1: inactive

Name the outcome recorded for CCCCCCCCOC(=O)CCCCCCCCC(=O)OCCCCCCCC in the assay. inactive

Name the outcome recorded for OCCC(F)(F)C(F)(F)C(F)(F)C(F)(F)C(F)(F)C(F)(F)C(F)(F)C(F)(F)F in the assay. inactive

Name the outcome recorded for OC1CCCCC1 in the assay. inactive

Name the outcome recorded for CC(C)(C)c1cccc(C(C)(C)C)c1O in the assay. inactive

----------
Assay: ATG_NRF2_ARE_CIS: Attagene CIS-FACTORIAL HepG2 Assay for human Nuclear Factor Erythroid 2 Related Factor 2 (NFR2) response to Antioxidant Response Elements (ARE) (AID 2282992)
Details: HepG2 Attagene ARE/NRF2 reporter, transcription factor activity; actives raise or lower the signal
Calls of active or inactive are those of the source. Rule for the calls: active = hit-call score of the fitted dose curve at least 0.9, where 1 is the maximum; inactive = score below 0.9.
Respond using exactly one of the listed classes: label 1 = active, label 0 = inactive

FC(F)(I)C(F)(F)C(F)(F)C(F)(F)C(F)(F)C(F)(F)I: label 1
CCCCCCCCCCCCCCCS(=O)(=O)Oc1ccccc1: label 0
CN1CCC[C@H]1c1cccnc1: label 0
c1ccc2c(c1)ccc1ccccc12: label 0
COc1cc(CCC(=O)CC(=O)CCc2ccc(O)c(OC)c2)ccc1O: label 1

Then there is this molecule:
Name the outcome recorded for O=C1OC2(c3ccccc31)c1cc(Br)c(O)c(Br)c1Oc1c2cc(Br)c(O)c1Br in the assay. label 0

----------
Read-out: Bcl-2 (BAX) gene, BAX (gene 581)
Assay: LTEA_HepaRG_BAX: Life Technologies and Expression Analysis (LTEA) Assay for Bcl-2 (BAX) gene using HepaRG (AID 2283470)
Settings: mRNA level, 48 h; actives raise or lower the signal
Activity calls are given as the source filed them. Rule for the calls: active = hit-call score of the fitted dose curve at least 0.9, where 1 is the maximum; inactive = score below 0.9.
Respond using exactly one of the listed classes: active, inactive

CCCCCCCCCCCCc1ccccc1S(=O)(=O)O: active

Name the outcome recorded for CCCCCCCCOC(=O)CCCCCCCCC(=O)OCCCCCCCC in the assay. inactive

Name the outcome recorded for CC[C@H](c1ccc(O)cc1)[C@@H](CC)c1ccc(O)cc1 in the assay. inactive

Name the outcome recorded for CCc1nn(C2CCCCC2)c2cc(C3(C#N)CCC(C(=O)O)CC3)ccc12 (stereo unspecified) in the assay. active

Name the outcome recorded for CCCCCCCC(=O)O in the assay. inactive

Name the outcome recorded for OCCC(F)(F)C(F)(F)C(F)(F)C(F)(F)C(F)(F)C(F)(F)C(F)(F)C(F)(F)F in the assay. inactive
